- MEASURED ON: human LPAR1 (Homo sapiens, UniProt Q92633)
- Construct: host or cells: TangoEDG2-bla U2OS cells
- Sequence (Q92633 whole entry): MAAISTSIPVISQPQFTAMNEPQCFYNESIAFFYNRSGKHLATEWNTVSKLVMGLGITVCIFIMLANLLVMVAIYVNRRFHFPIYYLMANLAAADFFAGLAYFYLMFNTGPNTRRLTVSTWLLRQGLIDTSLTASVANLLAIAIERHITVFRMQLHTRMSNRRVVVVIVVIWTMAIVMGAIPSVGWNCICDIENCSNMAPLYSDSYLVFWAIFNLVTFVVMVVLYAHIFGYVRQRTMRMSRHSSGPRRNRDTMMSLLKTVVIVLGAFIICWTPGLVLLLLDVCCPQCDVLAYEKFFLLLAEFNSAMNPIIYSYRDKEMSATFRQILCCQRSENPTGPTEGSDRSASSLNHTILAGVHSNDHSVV
- PROTOCOL DETAILS: Arrestin assay (Arrestin Reporter EDG2-bla U2OS), inhibition of LPA-stimulated signal
- Assay type: cell-based
- TEST CONTEXT: TangoEDG2-bla U2OS cells expressing human LPAR1; 0.25 μM LPA; read-out: Arrestin Reporter EDG2-bla U2OS Human Merged IC50
PARAMETER: IC50

Worked set:
| COMPOUND | IC50 |
| --- | --- |
| CC(C)c1ccnn1C1(C(=O)Nc2ccc(Cl)cc2OC(F)F)CCN(C[C@@]2(C(=O)O)CCCO2)CC1 [Compound 20] | 28.8 nM |
| COC[C@@H](CN1CCC(C(=O)Nc2ccc(Cl)cc2OC(F)F)(n2nccc2C(C)C)CC1)C(=O)O (single isomer, unassigned) [Compound 119] | 15.5 nM |
| CC(C)c1ccnn1C1(C(=O)Nc2ccc(Cl)cc2OC(F)F)CCN(C[C@H](C(=O)O)[C@@H]2CCOC2)CC1 (single isomer, unassigned) [Compound 152] | 41.1 nM |

Then there is this compound:
Query string: Under human LPAR1 (Homo sapiens, UniProt Q92633), report IC50 for COCC[C@@H](CN1CCC(C(=O)Nc2ccc(Cl)cc2OC(F)F)(n2nccc2C(C)C)CC1)C(=O)O [Compound 156]
Result string: 49.7 nM

---

- MEASURED ON: human LPAR1 (Homo sapiens)
- Construct: host or cells: TangoEDG2-bla U2OS cells
- PROTOCOL DETAILS: Arrestin assay (Arrestin Reporter EDG2-bla U2OS), inhibition of LPA-stimulated signal
- Type: cell-based
- TEST CONTEXT: TangoEDG2-bla U2OS cells expressing human LPAR1; 0.25 μM LPA; read-out: Arrestin Reporter EDG2-bla U2OS Human Merged IC50
PARAMETER: IC50 (µM)
Lab book: enter the figure in µM, no units written.

Please review the following examples before continuing.
| COMPOUND | MEASURED ON | IC50, µM |
| --- | --- | --- |
| CC[C@@H](CN1CCC(C(=O)Nc2ccc(Cl)cc2OC(F)F)(n2nccc2C(C)C)CC1)C(=O)O | human LPAR1 (Homo sapiens) | 0.0221 |
| CCC(=O)N1CC[C@@](CN2CCC(C(=O)Nc3ccc(Cl)cc3OC(F)F)(n3nccc3C(C)C)CC2)(C(=O)O)C1 | human LPAR1 (Homo sapiens) | 0.0785 |
| CC(C)c1ccnn1C1(C(=O)Nc2ccc(Cl)cc2OC(F)F)CCN(C[C@@H](C(=O)O)c2cnn(C)c2)CC1 | human LPAR1 (Homo sapiens) | 0.125 |

Query string: Please report IC50 for the following compound: CC(C)c1ccnn1C1(C(=O)Nc2ccc(Cl)cc2OC(F)F)CCN(CC2(C(=O)O)CCN(C(=O)CC3CC3)CC2)CC1
Result string: 0.044

Query string: Please report IC50 for the following compound: CC(C)c1ccnn1C1(C(=O)Nc2ccc(Cl)cc2OC(F)F)CCN(Cc2cccc(C(=O)O)n2)CC1
Result string: 0.0553

Query string: Supply IC50 value. Item: CO[C@H]1CC[C@@H]([C@H](CN2CCC(C(=O)Nc3ccc(Cl)cc3OC(F)F)(n3nccc3C(C)C)CC2)C(=O)O)CC1 (single isomer, unassigned)
Result string: 0.0773
